B1: Connector enhancer of kinase suppressor of ras 2, residues 9 to 71; numbered along this chain, Q8WXI2 (parent)
chain: SKWSPSQVVDWMKGLDDCLQQYIKNFEREKISGDQLLRITHQELEDLGVSRIGHQELILEAVD

- Variants of: B1
- measurement-notes: abundance fitness (aPCA) (normalised: wild type 0, dead -1); higher = more abundant; growth selection in yeast, the domain comes from the species named
- condition-summary: Homo sapiens
Criterion: abundance fitness meeting or surpassing -0.2. Met: true (1). Not met: false (0).

Examples from the recorded data:
[[record]]
variant_code = "D16E"
label_value = "false (0)"

[[record]]
variant_code = "G48A"
label_value = "false (0)"

[[record]]
variant_code = "L37G"
label_value = "true (1)"

[[record]]
variant_code = "E27Y"
label_value = "false (0)"

[[record]]
variant_code = "Q20N"
label_value = "true (1)"


# bool: abundance fitness of G33M >= -0.2 false (0)

# bool: abundance fitness of G33V >= -0.2 false (0)
